Tested on: large bowel cancer cell SW620 (K-RasG12V)
Experiment: Cell growth inhibition, adherent cells SW620
Assay type: cell-based
Conditions: Homo sapiens, SW-620; 1 μM, 72 hours; read-out: SW620 (KRasG12V) % inhibition at 1 μM
Label rule, in plain words: inhibition at 1 µM of 70% and up is Y, under 70% is N.

{"lineNotation": "CC(=O)N1CCc2cc(-c3cc(/C=C4/C(=O)c5ccccc5N4C(C)=O)nc4ccccc34)ccc2C1", "assayedSystem": "large bowel cancer cell SW620 (K-RasG12V)", "category": "N"}
{"lineNotation": "CC(=O)N1/C(=C\\c2cc(-c3cccc(-c4ccccc4)c3)c3cc(C(=O)N4CCOCC4)ccc3n2)C(=O)c2ccccc21", "assayedSystem": "large bowel cancer cell SW620 (K-RasG12V)", "category": "N"}
{"lineNotation": "CC(=O)N1C(=Cc2cc(-c3cccnc3-c3ccccc3)c3cc(C(=O)N4CCOCC4)ccc3n2)C(=O)c2ccccc21", "assayedSystem": "large bowel cancer cell SW620 (K-RasG12V)", "category": "Y"}
{"lineNotation": "CC(=O)N1/C(=C/c2cc(-c3ccnc4ccccc34)c3cc(C(=O)N4CCOCC4)ccc3n2)C(=O)c2ccccc21", "assayedSystem": "large bowel cancer cell SW620 (K-RasG12V)", "category": "N"}

----------
Molecular target: GTPγS-bound human HRasG12V / human c-Raf-1 Ras binding domain (RBD) (Homo sapiens (Human), UniProt P01112, G12V)
Sequence (P01112 whole entry G12V, the tested form may be a part): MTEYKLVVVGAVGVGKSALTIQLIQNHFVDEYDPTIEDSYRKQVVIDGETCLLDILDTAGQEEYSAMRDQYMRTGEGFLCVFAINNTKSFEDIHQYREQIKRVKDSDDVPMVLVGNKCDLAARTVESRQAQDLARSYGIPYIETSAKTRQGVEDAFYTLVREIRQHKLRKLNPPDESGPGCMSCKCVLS
Test: Ras-Raf binding inhibition ELISA
# Lookup of reported inhibition at 1 µM keyed by entry
reportedEndpoint: inhibition at 1 µM (%)

{"lineNotation": "CC(=O)N1/C(=C\\c2cc(-c3cnn(C)c3)c3cc(CNC4CCOCC4)ccc3n2)C(=O)c2ccccc21", "reportedEndpoint": "inhibition at 1 µM", "reading": 66.3}
{"lineNotation": "CC(=O)N1/C(=C\\c2cc(-c3ccc(-c4ccccc4)cc3)c3cc(CNC4CCOCC4)ccc3n2)C(=O)c2ccccc21", "reportedEndpoint": "inhibition at 1 µM", "reading": 48.4}
{"lineNotation": "CC(=O)N1/C(=C\\c2cc(-c3cccc(-c4ccccc4)c3)c3cc(CNC4CCOCC4)ccc3n2)C(=O)c2ccccc21", "reportedEndpoint": "inhibition at 1 µM", "reading": 48.7}
{"lineNotation": "CC(=O)N1/C(=C\\c2cc(-c3ncn(C)n3)c3cc(C(=O)N4CCOCC4)ccc3n2)C(=O)c2ccccc21", "reportedEndpoint": "inhibition at 1 µM", "reading": 53.7}
{"lineNotation": "CC(=O)N1/C(=C\\c2cc(CNC3CCOCC3)c3ccccc3n2)C(=O)c2ccccc21", "reportedEndpoint": "inhibition at 1 µM", "reading": 46.7}
{"lineNotation": "CC(=O)N1CCc2c(cccc2-c2cc(/C=C3/C(=O)c4ccccc4N3C(C)=O)nc3ccccc23)C1", "reportedEndpoint": "inhibition at 1 µM", "reading": 60.4}
{"lineNotation": "CC(=O)N1/C(=C\\c2cc(-c3cccc(-c4cnn(C)c4)c3)c3cc(CNC4CCOCC4)ccc3n2)C(=O)c2ccccc21", "reportedEndpoint": "inhibition at 1 µM", "reading": 66.9}

----------
The following compounds are listed with their measured log10 IC50 values.
Molecular target: GTPγS-bound human HRasG12V / human c-Raf-1 Ras binding domain (RBD) (Homo sapiens (Human), UniProt P01112, G12V)
Experiment: Ras-Raf binding inhibition ELISA
Settings: anti-HRas antibody C-20; read-out: ELISA IC50 (μM): 1st Ab_C-20
reportedEndpoint: log10 IC50 (log10 of the value in µM)

{"compound": "CC(=O)N1/C(=C\\c2cc(-c3ccc(C(=O)O)cc3)c3cc(C(=O)N4CCOCC4)ccc3n2)C(=O)c2ccccc21 [Example 174]", "log10 IC50": -0.30}
{"compound": "CC(=O)N1/C(=C\\c2cc(-c3ccccc3-c3ccccc3)c3cc(C(=O)N4CCOCC4)ccc3n2)C(=O)c2ccccc21 [Example 89]", "log10 IC50": -0.30}
{"compound": "CC(=O)N1/C(=C\\c2cc(-c3nc[nH]n3)c3cc(C(=O)N4CCOCC4)ccc3n2)C(=O)c2ccccc21 (racemic) [Example 212]", "log10 IC50": -0.10}
{"compound": "CC(=O)N1/C(=C\\c2nc3cc(C(=O)N4CCOCC4)ccc3s2)C(=O)c2ccccc21 [Example 47]", "log10 IC50": 0.59}
{"compound": "CC(=O)N1/C(=C\\c2cc(-c3cccc(-c4ccccc4)c3)c3cc(C(=O)N4CCOCC4)ccc3n2)C(=O)c2ccccc21 [Example 88]", "log10 IC50": -0.01}
{"compound": "CC(=O)N1C(=Cc2ccc(OCC(=O)N3CCOCC3)c(F)c2)C(=O)c2ccccc21 (racemic) [Example 16]", "log10 IC50": 0.88}
{"compound": "CC(=O)N1/C(=C\\c2ccc3cc(CN4CCOCC4)ccc3n2)C(=O)c2ccccc21 [Example 35]", "log10 IC50": 0.41}
{"compound": "CC(=O)N1/C(=C\\c2cc(-c3cccc(-c4ccccc4)c3)c3cc(CNC4CCOCC4)ccc3n2)C(=O)c2ccccc21 [Example 164]", "log10 IC50": 0.08}
{"compound": "CC(=O)N1/C(=C\\c2cc(-c3cnn(C)c3)c3cc(CNC4CCOCC4)ccc3n2)C(=O)c2ccccc21 [Example 205]", "log10 IC50": -0.15}
{"compound": "CC(=O)N1/C(=C\\c2cc(CNC3CCOCC3)c3ccccc3n2)C(=O)c2ccccc21 [Example 208]", "log10 IC50": 0.11}
{"compound": "CC(=O)N1/C(=C\\c2cc(-c3nccn3C)c3cc(C(=O)N4CCOCC4)ccc3n2)C(=O)c2ccccc21 [Example 180]", "log10 IC50": 0.18}
{"compound": "CC(=O)N1/C(=C\\c2cc(-c3ccccc3-c3ccccc3)c3cc(CNC4CCOCC4)ccc3n2)C(=O)c2ccccc21 [Example 143]", "log10 IC50": -0.22}
{"compound": "CC(=O)N1/C(=C\\c2cc(-c3cnn(C)c3)c3cc(C(=O)N4CCOCC4)ccc3n2)C(=O)c2ccccc21 [Example 171]", "log10 IC50": -0.40}
{"compound": "CC(=O)N1C(=Cc2cc(F)c(OCC(=O)N3CCOCC3)c(F)c2)C(=O)c2ccccc21 (racemic) [Example 19]", "log10 IC50": 0.76}
{"compound": "CC(=O)N1/C(=C\\c2cc(-c3ncn(C)n3)c3cc(C(=O)N4CCOCC4)ccc3n2)C(=O)c2ccccc21 [Example 188]", "log10 IC50": -0.05}
{"compound": "CC(=O)N1/C(=C\\c2cc(-c3ccccc3-c3ccccc3)c3cc(C(=O)N4CCN(C5COC5)CC4)ccc3n2)C(=O)c2ccccc21 [Example 95]", "log10 IC50": -0.36}
{"compound": "CC(=O)N1/C(=C\\c2cc(-c3ccc4ccccc4c3)c3cc(C(=O)N4CCN(C5COC5)CC4)ccc3n2)C(=O)c2ccccc21 [Example 163]", "log10 IC50": -0.15}
{"compound": "CC(=O)N1/C(=C\\c2cc(-c3ccccc3-c3ccccc3)c3cc(C(=O)O)ccc3n2)C(=O)c2ccccc21 [Example 128]", "log10 IC50": -0.31}
{"compound": "CC(=O)N1/C(=C\\c2cc(-c3ccc4ccccc4c3)c3cc(C(=O)O)ccc3n2)C(=O)c2ccccc21 [Example 157]", "log10 IC50": -0.22}

----------
System: large bowel cancer cell SW620 (K-RasG12V)
Test: Cell growth inhibition, adherent cells SW620
Assay type: cell-based
Conditions: Homo sapiens, SW-620; 1 μM, 72 hours; read-out: SW620 (KRasG12V) % inhibition at 1 μM
reportedEndpoint: inhibition at 1 µM

{"lineNotation": "CC(=O)N1/C(=C\\c2cc(-c3ccccc3-c3ccccc3)c3cc(C(=O)N4CCN(C5COC5)CC4)ccc3n2)C(=O)c2ccccc21", "reportedEndpoint": "inhibition at 1 µM", "reading": "70%"}
{"lineNotation": "CC(=O)N1/C(=C\\c2cc(-c3cccc4cccnc34)c3cc(C(=O)N4CCOCC4)ccc3n2)C(=O)c2ccccc21", "reportedEndpoint": "inhibition at 1 µM", "reading": "70%"}
{"lineNotation": "CC(=O)N1/C(=C\\c2cc(-c3ccccc3-c3ccccc3)c3cc(C(=O)O)ccc3n2)C(=O)c2ccccc21", "reportedEndpoint": "inhibition at 1 µM", "reading": "70%"}

Where these numbers come from: patent US20250091994A1
